Test: protein stability index of a GFP-peptide fusion (yeast GPS) (PSI 1-4); higher = more stable; sorted into four equal gates, so the index is relative within each strain
Conditions: doa10∆

{"columns": ["item sequence", "protein stability index"],
 "data": [
  ["DLLILTRSIKEKWLLNQ [SRB6]", 1.12],
  ["EDVLSSFYRVEKIKKIN [SSN2]", 1.7],
  ["NNTLSRYADAGNIDTKN [RRP43]", 3.35],
  ["QETCDKLRARLVEYGFD [SMC2]", 2.17]
]}

====

Assay: protein stability index of a GFP-peptide fusion (yeast GPS) (PSI 1-4); higher = more stable; sorted into four equal gates, so the index is relative within each strain
Conditions: ubr1∆
Quick reference: protein stability index of the listed items.

{"columns": ["item sequence", "protein stability index"],
 "data": [
  ["PTLPRSDRECPKCHSRE [RPB9]", 2.84],
  ["SNGNNLPLNKPRLEKLI [RGR1]", 3.16],
  ["FVPVPALSAYHKVQTKL [RPS7B]", 2.55],
  ["ELNDLKWGRNQPVNINL [YMR129W/POM152]", 2.56],
  ["IGQIIFSVRTKDSNKDV [RPL10]", 2.79],
  ["KAAISFGAKPEEQKSSD [YJL041W/NSP1]", 3.1],
  ["IAAGTYGKVYKAKRQIN [SSN3]", 2.29],
  ["IEAGRAALYKEVYNVIA [RPO21]", 2.82],
  ["FSPDGHIFQVEYALEAV [PRE6]", 3.18],
  ["DRLILDLKLPPMDAYLK [SNU114]", 3.17],
  ["IIDHIPGHSLLLSIKLP [SNF5]", 2.23],
  ["HINKKSQLDLFLRTMKL [GRR1]", 2.02],
  ["VVEISNGNTSSKTVVTL [FAS1]", 3.26],
  ["PQKPVPLNVLQDQYKEG [SNF2]", 2.94],
  ["VNTEKKTIEVTAEINCF [RPN3]", 1.62],
  ["TPLLENISISTSELGND [BRR2]", 2.03],
  ["NFNSSLHKRQQFSESTH [YJL039C/NUP192]", 3.03],
  ["FPGDSFPVDPTTPVKLG [RRP40]", 2.62],
  ["KKIMDETPSRLLLSPDQ [ITC1]", 3.33],
  ["ETLNDTIERSLIEEEVE [YCS4]", 3.33],
  ["LKSIESLKLENSDLEGK [SMC2]", 2.99],
  ["SAAASESDVAKQLASFG [RPL16B]", 2.42],
  ["PGVRVSGEDVIIGKTTP [RPB2]", 3.45],
  ["KKIIKCDEHMGLSLAGL [PRE5]", 2.94],
  ["FESSSSLPFLLRHMPLA [SSN2]", 1.48],
  ["KIMPKDILQITKKPLMV [SIR4]", 2.56],
  ["SMENTPKVPVSAAATPS [GAL11]", 1.78],
  ["ALLTVLKALSHHYNPKT [BRR2]", 2.41],
  ["VTRTQQWSMVAQRLQIS [SWI1]", 2.06],
  ["TVENPLRNWEELNIIPR [PRP28]", 1.77],
  ["IKDEIDDPFTKINTRGA [SWI1]", 2.12],
  ["VKEQTEAAKKSEKKAKK [RPL34A]", 3.31]
]}
